Data origin, for the record: patent US8980323B2

- Experimental details: Stereo-microscopic observation of drug-containing hydrophilic matrix films and gels (finely-dispersed state / precipitation)
- Type: physicochemical
- Set-up: key: ∘: contained in a finely-dispersed state; Δ: partially precipitated
- Condition context: gelatin film cast from HFIP; drug/gelatin 1.0%; stereo microscope
- Excerpt: The term “in a finely-dispersed state” used herein refers to a condition in which the contained poorly water-soluble drug, which is a compound of a size that cannot be detected with a stereo microscope (MZ16A produced by Leica), is uniformly dispersed in a matrix, or a condition in which such a drug is in a molecular dispersion state in a matrix. Paclitaxel (produced by LCL laboratories) was used as a poorly water-soluble compound. […]
Measured metric: State of drug in gelatin film, Drug/gelatin mass proportion 1.0%

| Smiles representation | Result |
| --- | --- |
| CN(C)c1ccc(N=Nc2ccccc2)cc1 | ∘ |
| CC(=O)Oc1ccccc1C(=O)O | ∘ |

* * *

- Experimental details: Stereo-microscopic observation of drug-containing hydrophilic matrix films and gels (finely-dispersed state / precipitation)
- Format: physicochemical
- Parameters: key: ∘: contained in a finely-dispersed state; Δ: partially precipitated
- Condition context: gelatin film cast from HFIP; drug/gelatin 1.0%; stereo microscope
Measured metric: State of drug in gelatin film, Drug/gelatin mass proportion 1.0%

| Molecule | Result |
| --- | --- |
| CC(=O)O[C@H]1C(=O)[C@@]2(C)[C@H]([C@H](OC(=O)c3ccccc3)[C@]3(O)C[C@H](OC(=O)[C@H](O)[C@@H](NC(=O)c4ccccc4)c4ccccc4)C(C)=C1C3(C)C)[C@]1(OC(C)=O)CO[C@@H]1C[C@@H]2O | ∘ |
| C=C1CC[C@H](O)C/C1=C/C=C1\CCC[C@]2(C)[C@@H]([C@H](C)CCCC(C)C)CC[C@@H]12 | ∘ |
| CC(=O)O[C@@]12CO[C@@H]1C[C@H](O)[C@@]1(C)C(=O)[C@H](O)C3=C(C)[C@@H](OC(=O)[C@H](O)[C@@H](NC(=O)OC(C)(C)C)c4ccccc4)C[C@@](O)([C@@H](OC(=O)c4ccccc4)[C@H]21)C3(C)C | ∘ |
| CCN(CC)c1ccc2c(C)cc(=O)oc2c1 | ∘ |
| CC12CCC(C(=O)C1=O)C2(C)C (stereo not drawn) | ∘ |
| O=C1NC(=O)C(c2ccccc2)(c2ccccc2)N1 | ∘ |

* * *

- Experimental details: Solubility in 1,1,1,3,3,3-hexafluoro-2-propanol (HFIP)
- Condition context: 1,1,1,3,3,3-hexafluoro-2-propanol (HFIP), organic solvent or mixture, thermodynamic from solid
Listing: solubility of selected compounds

| Compound | solubility |
| --- | --- |
| CC(=O)Oc1ccccc1C(=O)O | 200 to 500 mg/mL |
| CC12CCC(C(=O)C1=O)C2(C)C (stereo not drawn) | 200 to 500 mg/mL |
| CO[C@H]1C[C@@H]2CC[C@@H](C)[C@@](O)(O2)C(=O)C(=O)N2CCCC[C@H]2C(=O)O[C@H]([C@H](C)C[C@@H]2CC[C@@H](O)[C@H](OC)C2)CC(=O)[C@H](C)/C=C(\C)[C@@H](O)[C@@H](OC)C(=O)[C@H](C)C[C@H](C)/C=C/C=C/C=C/1C | 200 to 500 mg/mL |
| CC(=O)O[C@H]1C(=O)[C@@]2(C)[C@H]([C@H](OC(=O)c3ccccc3)[C@]3(O)C[C@H](OC(=O)[C@H](O)[C@@H](NC(=O)c4ccccc4)c4ccccc4)C(C)=C1C3(C)C)[C@]1(OC(C)=O)CO[C@@H]1C[C@@H]2O | 200 to 500 mg/mL |
| O=C1NC(=O)C(c2ccccc2)(c2ccccc2)N1 | 50 to 100 mg/mL |
| CC(=O)O[C@@]12CO[C@@H]1C[C@H](O)[C@@]1(C)C(=O)[C@H](O)C3=C(C)[C@@H](OC(=O)[C@H](O)[C@@H](NC(=O)OC(C)(C)C)c4ccccc4)C[C@@](O)([C@@H](OC(=O)c4ccccc4)[C@H]21)C3(C)C | 100 to 200 mg/mL |

* * *

Listing: Solubility in HFIP of selected molecules
- Experimental details: Solubility in 1,1,1,3,3,3-hexafluoro-2-propanol (HFIP)
- Condition context: upper dissolution limit - lower precipitation limit; samples at 30, 50, 100, 200, 500 mg/ml
Measured metric: Solubility in HFIP

| Smiles representation | Result |
| --- | --- |
| CCN(CC)c1ccc2c(C)cc(=O)oc2c1 | 200 to 500 mg/mL |
| CC(=O)O[C@H]1C(=O)[C@@]2(C)[C@H]([C@H](OC(=O)c3ccccc3)[C@]3(O)C[C@H](OC(=O)[C@H](O)[C@@H](NC(=O)c4ccccc4)c4ccccc4)C(C)=C1C3(C)C)[C@]1(OC(C)=O)CO[C@@H]1C[C@@H]2O | 200 to 500 mg/mL |
| CN(C)c1ccc(N=Nc2ccccc2)cc1 | 50 to 100 mg/mL |
| C=C1CC[C@H](O)C/C1=C/C=C1\CCC[C@]2(C)[C@@H]([C@H](C)CCCC(C)C)CC[C@@H]12 | 200 to 500 mg/mL |

* * *

- Experimental details: Stereo-microscopic observation of drug-containing hydrophilic matrix films and gels (finely-dispersed state / precipitation)
- Assay type: physicochemical
- Parameters: key: ∘: contained in a finely-dispersed state; Δ: partially precipitated
- Condition context: gelatin film cast from HFIP; drug/gelatin 5.0%; stereo microscope
Measured metric: State of drug in gelatin film, Drug/gelatin mass proportion 5.0%

| Molecule | Result |
| --- | --- |
| CC(=O)O[C@@]12CO[C@@H]1C[C@H](O)[C@@]1(C)C(=O)[C@H](O)C3=C(C)[C@@H](OC(=O)[C@H](O)[C@@H](NC(=O)OC(C)(C)C)c4ccccc4)C[C@@](O)([C@@H](OC(=O)c4ccccc4)[C@H]21)C3(C)C [Docetaxel] | ∘ |
| CC12CCC(C(=O)C1=O)C2(C)C (stereo not drawn) [Camphorquinone] | ∘ |
| CCN(CC)c1ccc2cc(-c3nc4ccccc4s3)c(=O)oc2c1 [Coumarin 6] | Precipitated |
| O=C1NC(=O)C(c2ccccc2)(c2ccccc2)N1 [Phenytoin] | Precipitated |
| CC(=O)Oc1ccccc1C(=O)O [Aspirin] | ∘ |
| CCN(CC)c1ccc2c(C)cc(=O)oc2c1 [Coumarin 1] | ∘ |
| CN(C)c1ccc(N=Nc2ccccc2)cc1 [Methyl yellow] | Precipitated |
| C=C1CC[C@H](O)C/C1=C/C=C1\CCC[C@]2(C)[C@@H]([C@H](C)CCCC(C)C)CC[C@@H]12 [Vitamin D3] | ∘ |
| CC(=O)O[C@H]1C(=O)[C@@]2(C)[C@H]([C@H](OC(=O)c3ccccc3)[C@]3(O)C[C@H](OC(=O)[C@H](O)[C@@H](NC(=O)c4ccccc4)c4ccccc4)C(C)=C1C3(C)C)[C@]1(OC(C)=O)CO[C@@H]1C[C@@H]2O [Paclitaxel] | ∘ |
